Values compiled from patent US20220275097A1.

// reported EC50, SIE-luciferase reporter assay for each item listed
system: leptin receptor on reporter cells (SIE-luciferase reporter cells; Ba/F3-lepR reporter cells), P48357
Sequence (P48357 22-1165): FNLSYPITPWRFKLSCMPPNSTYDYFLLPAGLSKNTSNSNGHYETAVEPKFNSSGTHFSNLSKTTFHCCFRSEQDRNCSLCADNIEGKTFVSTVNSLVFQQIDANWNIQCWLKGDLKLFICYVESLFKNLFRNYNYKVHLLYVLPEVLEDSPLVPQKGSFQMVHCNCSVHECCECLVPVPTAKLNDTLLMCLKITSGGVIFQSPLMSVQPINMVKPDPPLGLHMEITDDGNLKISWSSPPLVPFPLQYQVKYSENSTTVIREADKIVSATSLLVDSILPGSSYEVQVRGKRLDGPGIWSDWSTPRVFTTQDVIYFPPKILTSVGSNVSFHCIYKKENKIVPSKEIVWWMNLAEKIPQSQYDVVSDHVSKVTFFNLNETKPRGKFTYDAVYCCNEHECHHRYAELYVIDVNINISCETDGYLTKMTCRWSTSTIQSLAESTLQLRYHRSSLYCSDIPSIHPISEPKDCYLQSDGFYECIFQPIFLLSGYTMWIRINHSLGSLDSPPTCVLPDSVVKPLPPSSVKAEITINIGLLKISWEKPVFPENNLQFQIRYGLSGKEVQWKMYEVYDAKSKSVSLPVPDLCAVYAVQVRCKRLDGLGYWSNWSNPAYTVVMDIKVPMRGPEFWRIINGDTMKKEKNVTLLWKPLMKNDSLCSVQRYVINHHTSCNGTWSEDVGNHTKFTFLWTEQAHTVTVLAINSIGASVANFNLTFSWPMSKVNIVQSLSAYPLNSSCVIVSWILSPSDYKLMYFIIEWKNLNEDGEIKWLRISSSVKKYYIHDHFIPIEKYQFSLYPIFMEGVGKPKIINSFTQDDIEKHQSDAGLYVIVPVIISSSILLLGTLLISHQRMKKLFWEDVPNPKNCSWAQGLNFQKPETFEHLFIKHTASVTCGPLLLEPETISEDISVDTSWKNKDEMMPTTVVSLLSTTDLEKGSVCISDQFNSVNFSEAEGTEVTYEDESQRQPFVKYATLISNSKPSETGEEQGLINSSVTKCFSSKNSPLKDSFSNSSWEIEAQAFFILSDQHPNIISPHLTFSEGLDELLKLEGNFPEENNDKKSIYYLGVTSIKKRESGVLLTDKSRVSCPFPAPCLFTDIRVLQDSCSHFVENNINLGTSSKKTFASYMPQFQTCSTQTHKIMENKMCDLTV
assayComment: cell-based or functional assay
Respond with the bare value in nM.

Use the examples below as a reference point.
binder	EC50, SIE-luciferase reporter assay / nM
S2H5 (antibody, V domains shown) VH: QVQLLQSGGGVVQPGRSLRLSCAASGFTFSSYGMHWVRQAPGKGLEWVAVISYDGSNKYYADSVKGRFTISRDNSKNTLYLQMNSLRAEDTAVYYCASRYENYFSLWGQGTLVTVSS VL: EIVLTQSPGTLSLSPGERATLSCRASQSVSSNYLAWYQQKPGQAPRLLIYGASSRPTGIPDRFSGSGSGTDFTLTISRLEPEDFAVYYCQQYAASPLTFGGGTKLEIK	0.738
S2H2 (antibody, V domains shown) VH: QVQLLQSGGGVVQPGRSLRLSCAASGFTFSSYGMHWVRQAPGKGLEWVAVISYDGSNKYYADSVKGRFTISRDNSKNTLYLQMNSLRAEDTAVYYCATFRENYFEYWGQGTLVTVSS VL: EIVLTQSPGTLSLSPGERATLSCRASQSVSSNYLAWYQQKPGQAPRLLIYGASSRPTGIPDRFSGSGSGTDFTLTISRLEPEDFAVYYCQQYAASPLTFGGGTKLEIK	0.652
S2H7 (antibody, V domains shown) VH: QVQLLQSGGGVVQPGRSLRLSCAASGFTFSSYGMHWVRQAPGKGLEWVAVISYDGSNKYYADSVKGRFTISRDNSKNTLYLQMNSLRAEDTAVYYCATRYENYFSTWGQGTLVTVSS VL: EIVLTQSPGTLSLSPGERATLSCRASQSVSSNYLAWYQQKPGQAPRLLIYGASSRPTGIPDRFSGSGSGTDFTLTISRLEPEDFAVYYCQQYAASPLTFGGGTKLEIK	0.494
S2H1 (antibody, V domains shown) VH: QVQLLQSGGGVVQPGRSLRLSCAASGFTFSSYGMHWVRQAPGKGLEWVAVISYDGSNKYYADSVKGRFTISRDNSKNTLYLQMNSLRAEDTAVYYCASLYENYFSLWGQGTLVTVSS VL: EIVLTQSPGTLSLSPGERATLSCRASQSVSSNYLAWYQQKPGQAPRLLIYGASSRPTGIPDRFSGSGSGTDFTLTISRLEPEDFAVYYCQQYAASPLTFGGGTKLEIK	0.453

Okay, next one:
Memo: S2H3 (antibody, V domains shown) VH: QVQLLQSGGGVVQPGRSLRLSCAASGFTFSSYGMHWVRQAPGKGLEWVAVISYDGSNKYYADSVKGRFTISRDNSKNTLYLQMNSLRAEDTAVYYCAGVRENYFTYWGQGTLVTVSS VL: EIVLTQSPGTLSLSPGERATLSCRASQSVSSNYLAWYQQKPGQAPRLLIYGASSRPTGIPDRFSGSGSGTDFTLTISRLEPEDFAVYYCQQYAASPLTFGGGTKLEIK , reported EC50, SIE-luciferase reporter assay: 0.328
